Sourced from patent US20190142971A1

tested on: HeLa cells; experiment: Example 75: chemical modifications of luciferase mRNA, RLU (Table 114); assay type: cell-based; conditions: 83 ng luciferase mRNA, 18 to 22 hours
MEASURED_PARAMETER: RLU (RLU)
Enter your answer as a number in RLU; do not include the unit.

Consider the reported RLU for these molecules:
Cn1cc([C@@H]2O[C@H](CO)[C@@H](O)[C@H]2O)c(=O)[nH]c1=O = 3068261
CC(=O)Nc1ccn([C@@H]2O[C@H](CO)[C@@H](O)[C@H]2O)c(=O)n1 = 1073251
COc1cn([C@@H]2O[C@H](CO)[C@@H](O)[C@H]2O)c(=O)[nH]c1=O = 219657

Ask: Any idea what RLU was measured for "O=c1[nH]c(=O)n([C@@H]2O[C@H](CO)[C@@H](O)[C@H]2O)cc1Br" ?
Reply: 6787

Ask: Same question, "O=c1[nH]cc([C@@H]2O[C@H](CO)[C@@H](O)[C@H]2O)c(=O)[nH]1" this time
Reply: 140234
